test: Solubility trials of rutin in water, ethanol, methanol and NADES, quantified by HPLC-DAD; type: physicochemical; settings: natural deep eutectic solvent (NADES), 22 °C, organic solvent or mixture, thermodynamic from solid, solvent mixture 30 Choline Chloride–Malic Acid 1:1
propertyMeasured: solubility at 1 h

Q: Read off the recorded solubility at 1 h for `C[C@@H]1O[C@@H](OC[C@H]2O[C@@H](Oc3c(-c4ccc(O)c(O)c4)oc4cc(O)cc(O)c4c3=O)[C@H](O)[C@@H](O)[C@@H]2O)[C@H](O)[C@H](O)[C@H]1O`
Result: 702 µg/mL

====

assay: Solubility trials of rutin in water, ethanol, methanol and NADES, quantified by HPLC-DAD; assay type: physicochemical; details: Tartaric Acid–Fructose 1:1 (NADES mixture 8), 22 °C, organic solvent or mixture, thermodynamic from solid, solvent mixture 8 Tartaric Acid–Fructose 1:1
propertyMeasured: solubility at 1 h (µg/mL)
Kindly answer with a numeric value in µg/mL, unit omitted.

Q: Read off the recorded solubility at 1 h for C[C@@H]1O[C@@H](OC[C@H]2O[C@@H](Oc3c(-c4ccc(O)c(O)c4)oc4cc(O)cc(O)c4c3=O)[C@H](O)[C@@H](O)[C@@H]2O)[C@H](O)[C@H](O)[C@H]1O [rutin]
Result: 504

====

experiment: Solubility trials of rutin in water, ethanol, methanol and NADES, quantified by HPLC-DAD; type: physicochemical; conditions: natural deep eutectic solvent (NADES), 22 °C, organic solvent or mixture, thermodynamic from solid, solvent mixture 3 Urea–Tartaric Acid 1:1
propertyMeasured: solubility at 1 h

Q: Read off the recorded solubility at 1 h for `C[C@@H]1O[C@@H](OC[C@H]2O[C@@H](Oc3c(-c4ccc(O)c(O)c4)oc4cc(O)cc(O)c4c3=O)[C@H](O)[C@@H](O)[C@@H]2O)[C@H](O)[C@H](O)[C@H]1O`
Result: 680 µg/mL

====

assay: Solubility trials of rutin in water, ethanol, methanol and NADES, quantified by HPLC-DAD; format: physicochemical; conditions: natural deep eutectic solvent (NADES), 22 °C, organic solvent or mixture, thermodynamic from solid, solvent mixture 26 Proline–Glucose1:1
propertyMeasured: solubility at 1 h
Answer format: value, then unit.

Q: Read off the recorded solubility at 1 h for `C[C@@H]1O[C@@H](OC[C@H]2O[C@@H](Oc3c(-c4ccc(O)c(O)c4)oc4cc(O)cc(O)c4c3=O)[C@H](O)[C@@H](O)[C@@H]2O)[C@H](O)[C@H](O)[C@H]1O`
Result: 879 µg/mL

====

test: Solubility trials of rutin in water, ethanol, methanol and NADES, quantified by HPLC-DAD; type: physicochemical; conditions: natural deep eutectic solvent (NADES), 22 °C, organic solvent or mixture, thermodynamic from solid, solvent mixture 24 Ornitine–Citric Acid1:1
propertyMeasured: solubility at 1 h (µg/mL)
Kindly answer with a numeric value in µg/mL, unit omitted.

Q: Read off the recorded solubility at 1 h for `C[C@@H]1O[C@@H](OC[C@H]2O[C@@H](Oc3c(-c4ccc(O)c(O)c4)oc4cc(O)cc(O)c4c3=O)[C@H](O)[C@@H](O)[C@@H]2O)[C@H](O)[C@H](O)[C@H]1O`
Result: 425

====

assay: Solubility trials of rutin in water, ethanol, methanol and NADES, quantified by HPLC-DAD; format: physicochemical; details: Citric Acid–Fructose 1:1 (NADES mixture 7), 22 °C, organic solvent or mixture, thermodynamic from solid, solvent mixture 7 Citric Acid–Fructose 1:1
propertyMeasured: solubility at 1 h (µg/mL)
Kindly answer with a numeric value in µg/mL, unit omitted.

Q: Read off the recorded solubility at 1 h for C[C@@H]1O[C@@H](OC[C@H]2O[C@@H](Oc3c(-c4ccc(O)c(O)c4)oc4cc(O)cc(O)c4c3=O)[C@H](O)[C@@H](O)[C@@H]2O)[C@H](O)[C@H](O)[C@H]1O [rutin]
Result: 205

====

test: Solubility trials of rutin in water, ethanol, methanol and NADES, quantified by HPLC-DAD; type: physicochemical; conditions: natural deep eutectic solvent (NADES), 22 °C, organic solvent or mixture, thermodynamic from solid, solvent mixture 27 Proline–Fructose 1:1
propertyMeasured: solubility at 1 h (µg/mL)
Kindly answer with a numeric value in µg/mL, unit omitted.

Q: Read off the recorded solubility at 1 h for `C[C@@H]1O[C@@H](OC[C@H]2O[C@@H](Oc3c(-c4ccc(O)c(O)c4)oc4cc(O)cc(O)c4c3=O)[C@H](O)[C@@H](O)[C@@H]2O)[C@H](O)[C@H](O)[C@H]1O`
Result: 1560

====

experiment: Solubility trials of rutin in water, ethanol, methanol and NADES, quantified by HPLC-DAD; format: physicochemical; settings: natural deep eutectic solvent (NADES), 22 °C, organic solvent or mixture, thermodynamic from solid, solvent mixture 29 Proline–Choline Chloride 1:3
propertyMeasured: solubility at 1 h (µg/mL)
Kindly answer with a numeric value in µg/mL, unit omitted.

Q: Read off the recorded solubility at 1 h for C[C@@H]1O[C@@H](OC[C@H]2O[C@@H](Oc3c(-c4ccc(O)c(O)c4)oc4cc(O)cc(O)c4c3=O)[C@H](O)[C@@H](O)[C@@H]2O)[C@H](O)[C@H](O)[C@H]1O [rutin]
Result: 2800

====

test: Solubility trials of rutin in water, ethanol, methanol and NADES, quantified by HPLC-DAD; type: physicochemical; details: natural deep eutectic solvent (NADES), 22 °C, organic solvent or mixture, thermodynamic from solid, solvent mixture 12 Proline–Oxalic Acid 1:1
propertyMeasured: solubility at 1 h (µg/mL)
Kindly answer with a numeric value in µg/mL, unit omitted.

Q: Read off the recorded solubility at 1 h for C[C@@H]1O[C@@H](OC[C@H]2O[C@@H](Oc3c(-c4ccc(O)c(O)c4)oc4cc(O)cc(O)c4c3=O)[C@H](O)[C@@H](O)[C@@H]2O)[C@H](O)[C@H](O)[C@H]1O [rutin]
Result: 749

====

experiment: Solubility trials of rutin in water, ethanol, methanol and NADES, quantified by HPLC-DAD; format: physicochemical; settings: natural deep eutectic solvent (NADES), 22 °C, organic solvent or mixture, thermodynamic from solid, solvent mixture 25 Citrulline–Citric Acid 1:1
propertyMeasured: solubility at 1 h

Q: Read off the recorded solubility at 1 h for `C[C@@H]1O[C@@H](OC[C@H]2O[C@@H](Oc3c(-c4ccc(O)c(O)c4)oc4cc(O)cc(O)c4c3=O)[C@H](O)[C@@H](O)[C@@H]2O)[C@H](O)[C@H](O)[C@H]1O`
Result: 0.46 mg/mL

====

assay: Solubility trials of rutin in water, ethanol, methanol and NADES, quantified by HPLC-DAD; type: physicochemical; settings: water, solvent Water; 22 °C; mean ± SD of 3
propertyMeasured: solubility at 1 h (µg/mL)
Kindly answer with a numeric value in µg/mL, unit omitted.

Q: Read off the recorded solubility at 1 h for `C[C@@H]1O[C@@H](OC[C@H]2O[C@@H](Oc3c(-c4ccc(O)c(O)c4)oc4cc(O)cc(O)c4c3=O)[C@H](O)[C@@H](O)[C@@H]2O)[C@H](O)[C@H](O)[C@H]1O`
Result: 120

====

assay: Solubility trials of rutin in water, ethanol, methanol and NADES, quantified by HPLC-DAD; assay type: physicochemical; conditions: methanol, solvent Methanol; 22 °C; mean ± SD of 3
propertyMeasured: solubility at 1 h (µg/mL)
Kindly answer with a numeric value in µg/mL, unit omitted.

Q: Read off the recorded solubility at 1 h for `C[C@@H]1O[C@@H](OC[C@H]2O[C@@H](Oc3c(-c4ccc(O)c(O)c4)oc4cc(O)cc(O)c4c3=O)[C@H](O)[C@@H](O)[C@@H]2O)[C@H](O)[C@H](O)[C@H]1O`
Result: 2050

====

test: Solubility trials of rutin in water, ethanol, methanol and NADES, quantified by HPLC-DAD; format: physicochemical; settings: natural deep eutectic solvent (NADES), 22 °C, organic solvent or mixture, thermodynamic from solid, solvent mixture 17 Arginine–Oxalic Acid 1:1
propertyMeasured: solubility at 1 h (mg/mL)
Kindly answer with a numeric value in mg/mL, unit omitted.

Q: Read off the recorded solubility at 1 h for C[C@@H]1O[C@@H](OC[C@H]2O[C@@H](Oc3c(-c4ccc(O)c(O)c4)oc4cc(O)cc(O)c4c3=O)[C@H](O)[C@@H](O)[C@@H]2O)[C@H](O)[C@H](O)[C@H]1O [rutin]
Result: 0.414

====

Assay: Solubility trials of rutin in water, ethanol, methanol and NADES, quantified by HPLC-DAD
Format: physicochemical
Conditions: natural deep eutectic solvent (NADES), 22 °C, organic solvent or mixture, thermodynamic from solid, solvent mixture 19 Arginin–Malic Acid 1:1
Experimental: Samples were stirred on a magnetic stirrer (Stuart, Bibby Scientific Ltd., Stone, Staffordshire, UK) for one hour at room temperature and centrifuged for 21 min at 13,000 rpm with Eppendorf 5415 R centrifuge The time of one-hour stirring was chosen because it was sufficient for all the prepared mixtures to reach maximum concentration of rutin. […] Limit of Quantification was 1 μg/mL. […] The chromatogram was recorded at 350 nm and spectral data for all peaks were obtained in the range of 190-400 nm. […]
propertyMeasured: solubility at 1 h (µg/mL)
Kindly answer with a numeric value in µg/mL, unit omitted.

Q: Read off the recorded solubility at 1 h for `C[C@@H]1O[C@@H](OC[C@H]2O[C@@H](Oc3c(-c4ccc(O)c(O)c4)oc4cc(O)cc(O)c4c3=O)[C@H](O)[C@@H](O)[C@@H]2O)[C@H](O)[C@H](O)[C@H]1O`
Result: 457
